- measurementTarget: human cloned somatostatin receptor 4 (human) (UniProt P31391)
- Sequence (P31391 whole entry): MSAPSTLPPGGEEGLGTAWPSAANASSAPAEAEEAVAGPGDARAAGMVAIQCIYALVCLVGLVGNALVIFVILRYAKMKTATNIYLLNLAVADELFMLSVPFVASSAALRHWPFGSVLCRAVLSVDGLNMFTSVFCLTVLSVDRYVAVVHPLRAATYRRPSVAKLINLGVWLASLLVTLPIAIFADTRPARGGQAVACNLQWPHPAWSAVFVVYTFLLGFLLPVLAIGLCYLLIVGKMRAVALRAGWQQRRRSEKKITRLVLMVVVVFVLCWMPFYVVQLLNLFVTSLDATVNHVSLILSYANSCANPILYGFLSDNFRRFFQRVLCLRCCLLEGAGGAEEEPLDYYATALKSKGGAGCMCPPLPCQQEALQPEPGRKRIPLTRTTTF
- measurementDescription: 125I-Tyr11-SRIF-14 displacement
*1 amine or outer side, *2 acyl side, *3 side chain or, on linkers, in order; H or OH if unused. Bridges are numbered along the chain shown (N, C = ends). [ ]: non-standard residue; d: D form. The star is where a group is joined. DOTA = O=C(O)CN1CCN(CC(=O)O)CCN(CC(=O)*)CCN(CC(=O)O)CC1; N(2-mercaptoethyl)Gly = O=C(CN(CCS[*:3])[*:1])[*:2]; 4Amb = NCc1ccc(C(=O)O)cc1; Orn = NCCC[C@H](N)C(=O)O; GABA = NCCCC(=O)O
metricName: % displacement at 1 nM (%)

INSERT INTO assay_data (binder, valuereported) VALUES
  ('H-XRCF[dW]KTY[N(2-mercaptoethyl)Gly]-NH2 (disulfide 3-9; not fully specified (residue 1); printed as H-Phe1-Arg2-Cys3-Phe4-D-Trp5-Lys6-Thr7-Tyr8-NTEG9-NH2 (cyclo 3-9)) [SEQ ID NO: 26]', 0),
  ('{DOTA}-[dF]RCY[dW]KTF[N(2-mercaptoethyl)Gly]-NH2 (disulfide 3-9; SMILES C[C@@H](O)[C@@H]1NC(=O)[C@H](CCCCN)NC(=O)[C@@H](Cc2c[nH]c3ccccc23)NC(=O)[C@H](Cc2ccc(O)cc2)NC(=O)[C@@H](NC(=O)[C@H](CCCNC(=N)N)NC(=O)[C@@H](Cc2ccccc2)NC(=O)CN2CCN(CC(=O)O)CCN(CC(=O)O)CCN(CC(=O)O)CC2)CSSCCN(CC(N)=O)C(=O)[C@H](Cc2ccccc2)NC1=O) [SEQ ID NO: 25]', 5),
  ('{DOTA-GABA}-[dF]RCF[dW]KTF[N(2-mercaptoethyl)Gly]-NH2 (disulfide 3-9; also: Ga complex of DOTA) [SEQ ID NO: 8]', 5),
  ('{DOTA-4Amb}-[dF]RCF[dW]KTF[N(2-mercaptoethyl)Gly]-NH2 (disulfide 3-9) [SEQ ID NO: 18]', 0),
  ('{DOTA}-F[dF]RCF[dW]KTF[N(2-mercaptoethyl)Gly]-NH2 (disulfide 4-10; SMILES C[C@@H](O)[C@@H]1NC(=O)[C@H](CCCCN)NC(=O)[C@@H](Cc2c[nH]c3ccccc23)NC(=O)[C@H](Cc2ccccc2)NC(=O)[C@@H](NC(=O)[C@H](CCCNC(=N)N)NC(=O)[C@@H](Cc2ccccc2)NC(=O)[C@H](Cc2ccccc2)NC(=O)CN2CCN(CC(=O)O)CCN(CC(=O)O)CCN(CC(=O)O)CC2)CSSCCN(CC(N)=O)C(=O)[C@H](Cc2ccccc2)NC1=O) [SEQ ID NO: 20]', 0),
  ('{DOTA}-[dF]EE[Orn]CF[dW]KTF[N(2-mercaptoethyl)Gly]-NH2 (disulfide 5-11; SMILES C[C@@H](O)[C@@H]1NC(=O)[C@H](CCCCN)NC(=O)[C@@H](Cc2c[nH]c3ccccc23)NC(=O)[C@H](Cc2ccccc2)NC(=O)[C@@H](NC(=O)[C@H](CCCN)NC(=O)[C@H](CCC(=O)O)NC(=O)[C@H](CCC(=O)O)NC(=O)[C@@H](Cc2ccccc2)NC(=O)CN2CCN(CC(=O)O)CCN(CC(=O)O)CCN(CC(=O)O)CC2)CSSCCN(CC(N)=O)C(=O)[C@H](Cc2ccccc2)NC1=O) [SEQ ID NO: 22]', 0);
